Data credit: DBAASP

Entries and their MIC values follow.
test system: Pseudomonas aeruginosa ATCC 9027; assay: ≥ marks a high value that may be exact or a test limit, other limits are often not marked, values filed in µg/mL are converted to µM
Numbers only; they are read as µM.

smiles record	units label	MIC
NCCCC[C@H](NC(=O)[C@H](CCCN=C(N)N)NC(=O)[C@H](Cc1c[nH]c2ccccc12)NC(=O)[C@H](CCCCN)NC(=O)[C@H](CCCN=C(N)N)NC(=O)[C@H](Cc1c[nH]c2ccccc12)NC(=O)[C@H](CCCCN)NC(=O)[C@H](CCCN=C(N)N)NC(=O)[C@H](Cc1c[nH]c2ccccc12)NC(=O)[C@H](CCCCN)NC(=O)[C@H](CCCN=C(N)N)NC(=O)[C@@H](N)Cc1c[nH]c2ccccc12)C(N)=O	µM	4

Per the records, this compound ( `CC[C@H](C)[C@H](NC(=O)[C@H](CC(C)C)NC(=O)[C@H](CCCN=C(N)N)NC(=O)[C@H](Cc1c[nH]c2ccccc12)NC(=O)[C@@H]1CCCN1C(=O)[C@H](Cc1c[nH]c2ccccc12)NC(=O)[C@H](Cc1c[nH]c2ccccc12)NC(=O)[C@@H]1CCCN1C(=O)[C@H](Cc1c[nH]c2ccccc12)NC(=O)[C@H](CCCN=C(N)N)NC(=O)[C@H](CCCN=C(N)N)NC(=O)[C@@H](N)CCCCN)C(N)=O` ) has MIC equal to 2.25

Per the records, this compound ( `CC(C)[C@H](NC(=O)[C@H](CCCCN)NC(=O)[C@H](Cc1ccccc1)NC(=O)[C@@H](NC(=O)[C@@H](NC(=O)[C@H](CCCCN)NC(=O)[C@@H](N)CCCCN)C(C)C)C(C)C)C(=O)N[C@@H](CCCCN)C(=O)N[C@@H](Cc1ccccc1)C(=O)N[C@@H](CCCCN)C(=O)O` ) has MIC equal to 4

###

Observed MIC for Escherichia coli ATCC 25922, reported per entry below.
Numbers only; they are read as µM.

molecule	units label	reported value
CC(C)C[C@H](NC(=O)[C@H](CCCCN)NC(=O)[C@H](CC(C)C)NC(=O)[C@H](CC(C)C)NC(=O)[C@H](CCCCN)NC(=O)[C@H](CCCCN)NC(=O)[C@H](CCCCN)NC(=O)[C@H](CC(C)C)NC(=O)[C@H](CCCCN)NC(=O)[C@H](CC(C)C)NC(=O)[C@H](CC(C)C)NC(=O)[C@H](CCCCN)NC(=O)[C@H](CCCCN)NC(=O)[C@@H](N)CC(C)C)C(=O)N[C@@H](C)C(=O)NCC(=O)O [LKKLLKLKKKLLKLAG]	µM	5

Recorded MIC for CC[C@H](C)[C@H](NC(=O)[C@H](CCCCN)NC(=O)CNC(=O)[C@H](Cc1ccccc1)NC(=O)[C@H](CC(C)C)NC(=O)CN)C(=O)N[C@@H](CC(C)C)C(=O)NCC(=O)N[C@H](C(=O)NCC(=O)N[C@@H](CCCCN)C(=O)N[C@@H](CCCCN)C(=O)N[C@H](C(=O)N[C@@H](CC(C)C)C(=O)N[C@H]1CSSC[C@@H](C(=O)O)NC(=O)[C@H](CCSC)NC(=O)CNC(=O)[C@H](CO)NC(=O)[C@H](CC(C)C)NC(=O)CNC1=O)C(C)C)C(C)C [GLFGKILGVGKKVLCGLSGMC] on Escherichia coli ATCC 25922 was 3

###

test system: Escherichia coli ATCC 25922
reported metric: MIC (µM)
Numbers only; they are read as µM.

Recorded MIC for `CC[C@H](C)[C@H](NC(=O)[C@H](Cc1ccccc1)NC(=O)[C@H](CCCCN)NC(=O)[C@H](CC(C)C)NC(=O)[C@H](CC(C)C)NC(=O)CN)C(=O)N[C@@H](CCCCN)C(=O)N[C@@H](Cc1c[nH]c2ccccc12)C(=O)N[C@@H](CC(C)C)C(=O)N[C@@H](CC(C)C)C(N)=O` on Escherichia coli ATCC 25922 was 22.1

###

test system: Candida albicans ATCC 2002
reported metric: MIC

Solved cases (2 shown):
smiles record	MIC
CC[C@H](C)[C@H](NC(=O)CNC(=O)[C@H](CS)NC(=O)[C@H](Cc1ccccc1)NC(=O)[C@H](CCCCN)NC(=O)[C@H](CCCN=C(N)N)NC(=O)[C@@H]1CCCN1C(=O)[C@H](CCCN=C(N)N)NC(=O)[C@H](CC(=O)O)NC(=O)[C@@H]1CCCN1C(=O)[C@H](C)N)C(=O)N[C@@H](CC(C)C)C(=O)NCC(=O)O	≥ 140 µM
CC[C@H](C)[C@H](NC(=O)[C@H](C)N)C(=O)N[C@@H](CC(C)C)C(=O)N[C@H](C(=O)N[C@H](C(=O)N[C@@H](CC(C)C)C(=O)N[C@@H](C)C(=O)N[C@@H](CC(N)=O)C(=O)N[C@@H](Cc1c[nH]c2ccccc12)C(=O)N[C@@H](C)C(=O)N[C@@H](CCCN=C(N)N)C(=O)N[C@@H](CCCCN)C(=O)N[C@@H](Cc1ccccc1)C(=O)N[C@@H](CC(C)C)C(N)=O)[C@@H](C)O)[C@@H](C)O	≥ 75 µM

Per the records, this molecule ( `CC[C@H](C)[C@H](NC(=O)CNC(=O)[C@H](CO)NC(=O)[C@H](CC(C)C)NC(=O)[C@H](CC(C)C)NC(=O)CN)C(=O)N[C@@H](CC(C)C)C(=O)NCC(=O)N[C@@H](C)C(=O)NCC(=O)N[C@@H](CCCCN)C(=O)N[C@@H](CCCN=C(N)N)C(=O)N[C@H](C(=O)N[C@H](C(=O)N[C@H]1CSSC[C@@H](C(=O)O)NC(=O)[C@H](CC(C)C)NC(=O)CNC(=O)[C@H](CO)NC(=O)[C@H](CC(C)C)NC(=O)CNC1=O)C(C)C)[C@@H](C)CC` ) has MIC equal to 1.01 µM

###

system: Enterococcus faecium ATCC 700221; test: ≥ marks a high value that may be exact or a test limit, other limits are often not marked, values filed in µg/mL are converted to µM
Lab note - cut at 6 µM for MIC: True if strictly below, False if not.

# count of solved cases: 3
compound	qualitative label
CC[C@H](C)[C@H](NC(=O)[C@H](CCCCN)NC(=O)[C@H](CCCCN)NC(=O)[C@H](CC(C)C)NC(=O)[C@H](CC(C)C)NC(=O)CN)C(=O)N[C@@H](CCCCN)C(=O)N[C@@H](Cc1c[nH]c2ccccc12)C(=O)N[C@@H](CC(C)C)C(=O)N[C@@H](CC(C)C)C(N)=O [GLLKKIKWLL]	False
CC[C@H](C)[C@H](NC(=O)[C@H](Cc1ccccc1)NC(=O)[C@H](CCCCN)NC(=O)[C@H](CC(C)C)NC(=O)[C@H](CC(C)C)NC(=O)CN)C(=O)N[C@@H](CCCCN)C(=O)N[C@@H](Cc1c[nH]c2ccccc12)C(=O)N[C@@H](CC(C)C)C(=O)N[C@@H](CC(C)C)C(N)=O [GLLKFIKWLL]	True
NC(=O)[C@H](CCCN=C(N)N)NC(=O)[C@H](CS)NC(=O)[C@H](Cc1ccc(O)cc1)NC(=O)[C@H](Cc1c[nH]c2ccccc12)NC(=O)[C@H](CCCN=C(N)N)NC(=O)[C@@H](N)Cc1c[nH]c2ccccc12 [WRWYCR]	False

Does the reported MIC of CC[C@H](C)[C@H](NC(=O)[C@H](CCCCN)NC(=O)[C@H](CCCCN)NC(=O)[C@H](CC(C)C)NC(=O)[C@H](CC(C)C)NC(=O)[C@H](CCCCN)NC(=O)[C@H](CCCCN)NC(=O)[C@@H](NC(=O)[C@H](CCCN=C(N)N)NC(=O)[C@H](CCCCN)NC(=O)[C@H](CC(C)C)NC(=O)[C@H](CC(C)C)NC(=O)CN)[C@@H](C)CC)C(=O)N[C@@H](CCCCN)C(=O)N[C@@H](CCCCN)C(=O)N[C@@H](CC(C)C)C(=O)N[C@@H](CC(C)C)C(N)=O [GLLKRIKKLLKKIKKLL] stay below 6 µM?
False

Does the reported MIC of CC[C@H](C)[C@H](NC(=O)[C@H](CCCCN)NC(=O)[C@H](CCCN=C(N)N)NC(=O)[C@H](Cc1ccccc1)NC(=O)[C@H](CC(C)C)NC(=O)[C@H](CCCN=C(N)N)NC(=O)[C@@H](N)CCCCN)C(=O)N[C@@H](CC(C)C)C(=O)N[C@@H](CCCN=C(N)N)C(=O)N[C@@H](Cc1ccc(O)cc1)C(=O)N[C@@H](CC(C)C)C(N)=O [KRLFRKILRYL] stay below 6 µM?
False

###

Observed MIC for Staphylococcus aureus ATCC 6538P, reported per entry below.
Numbers only; they are read as µM.

Solved cases (2 shown):
compound	reported value
CC[C@H](C)[C@H](NC(=O)[C@H](CCCCN)NC(=O)[C@H](CCCCN)NC(=O)[C@H](Cc1ccccc1)NC(=O)[C@H](CC(C)C)NC(=O)[C@H](CCCCN)NC(=O)[C@H](Cc1c[nH]c2ccccc12)NC(=O)[C@@H](N)CCCCN)C(=O)NCC(=O)N[C@@H](CCCCN)C(=O)N[C@H](C(=O)N[C@@H](CC(C)C)C(=O)N[C@@H](CCCCN)C(=O)N[C@@H](CCCCN)C(=O)N[C@@H](CC(C)C)C(=O)O)C(C)C [KWKLFKKIGKVLKKL]	5.66
CC[C@H](C)[C@H](NC(=O)[C@H](CCCCN)NC(=O)[C@H](CCCCN)NC(=O)[C@H](Cc1ccccc1)NC(=O)[C@H](CCCCN)NC(=O)[C@H](CCCCN)NC(=O)[C@H](Cc1c[nH]c2ccccc12)NC(=O)[C@@H](N)CCCCN)C(=O)NCC(=O)N[C@@H](C)C(=O)N[C@H](C(=O)N[C@@H](CC(C)C)C(=O)N[C@@H](CCCCN)C(=O)N[C@@H](CCCCN)C(=O)N[C@@H](CC(C)C)C(=O)O)C(C)C [KWKKFKKIGAVLKKL]	16

Consider the record given below.
Recorded MIC for CC[C@H](C)[C@H](NC(=O)[C@H](C)NC(=O)[C@H](CC(C)C)NC(=O)[C@H](CS)NC(=O)[C@H](Cc1cnc[nH]1)NC(=O)[C@H](C)N)C(=O)NCC(=O)N[C@@H](CCCN=C(N)N)C(=O)N[C@@H](CCCN=C(N)N)C(N)=O [AHCLAIGRR] on Staphylococcus aureus ATCC 6538P was 6.02
